Ref: ChEMBL document CHEMBL3621047

assay: Inhibition of aspergillus niger alpha-galactosidase using 10 mM p-nitrophenyl-alpha-D-galactopyranoside as substrate
pIC50: −log10 of the molar value.
Would you please tag the item criterion met when its pIC50 is 6 or above, and criterion not met when it is below?

Sample answers from the record:
mol	classification
O=C1CC[C@@]2(CO)[C@@H](O)[C@H](O)[C@H](O)CN12	criterion not met
OC[C@@]12CCCN1C[C@H](O)[C@@H](O)[C@@H]2O	criterion met
OC[C@]12CCCN1C[C@H](O)[C@@H](O)[C@@H]2O	criterion met
O=C1CC[C@]2(CO)[C@@H](O)[C@H](O)[C@@H](O)CN12	criterion met
O=C1CC[C@@]2(CO)[C@@H](O)[C@H](O)[C@@H](O)CN12	criterion not met

As a next step, examine the compound that follows.
Does OC[C@@]12CCCN1C[C@@H](O)[C@@H](O)[C@@H]2O have a reported pIC50 of at least 6?
criterion met

====

test: Inhibition of bovine liver beta-glucosidase using 10 mM p-nitrophenyl-[…]-D-glucopyranoside as substrate; set-up: species or system Bos taurus
parameter: pKi
Would you please state pKi, meaning minus log10 of the concentration in mol/L, as a bare number?

// worked examples, pKi included
mol	pKi
O=C1CC[C@@]2(COCc3ccccc3)[C@@H](O)[C@H](O)[C@H](O)CN12	3.95
OC[C@@]12CCCN1C[C@H](O)[C@@H](O)[C@@H]2O	3.99
O=C1CC[C@@]2(CO)[C@@H](O)[C@H](O)[C@@H](O)CN12	4.72
OC[C@@]12CCCN1C[C@@H](O)[C@@H](O)[C@@H]2O	4.07
O=C1CC[C@@]2(CO)[C@@H](O)[C@H](O)[C@H](O)CN12	4.62
OCCN1C[C@H](O)[C@@H](O)[C@H](O)[C@H]1CO	4.49
OC[C@]12CCCN1C[C@H](O)[C@@H](O)[C@@H]2O	4.02

Please give the measured pKi for this compound: O=C1CC[C@]2(CO)[C@@H](O)[C@H](O)[C@@H](O)CN12
4.96

====

Molecular target: Beta-galactosidase (Bos taurus)
Sequence (Q58D55 whole entry): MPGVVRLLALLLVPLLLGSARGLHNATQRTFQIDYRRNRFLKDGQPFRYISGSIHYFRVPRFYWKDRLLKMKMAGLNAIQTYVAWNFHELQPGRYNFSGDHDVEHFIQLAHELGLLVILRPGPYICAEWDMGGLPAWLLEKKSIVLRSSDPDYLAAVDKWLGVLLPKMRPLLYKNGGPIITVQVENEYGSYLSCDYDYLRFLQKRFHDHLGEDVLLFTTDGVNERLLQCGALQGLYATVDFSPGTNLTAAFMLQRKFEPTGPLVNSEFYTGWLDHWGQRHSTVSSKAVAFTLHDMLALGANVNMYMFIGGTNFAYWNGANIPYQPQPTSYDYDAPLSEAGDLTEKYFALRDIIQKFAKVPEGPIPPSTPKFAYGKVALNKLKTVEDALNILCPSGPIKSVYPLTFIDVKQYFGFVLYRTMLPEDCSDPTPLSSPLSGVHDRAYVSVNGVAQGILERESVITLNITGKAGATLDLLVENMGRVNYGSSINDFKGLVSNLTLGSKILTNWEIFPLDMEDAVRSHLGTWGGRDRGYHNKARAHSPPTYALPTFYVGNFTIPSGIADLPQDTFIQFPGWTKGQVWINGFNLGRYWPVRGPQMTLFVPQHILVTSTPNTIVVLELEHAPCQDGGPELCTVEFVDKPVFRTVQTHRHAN
Catalogue of compounds with associated Ki

compound	target system	Ki
OCCN1C[C@H](O)[C@@H](O)[C@H](O)[C@H]1CO [MIGLITOL]	Beta-galactosidase (Bos taurus)	100000 nM
OC[C@@]12CCCN1C[C@@H](O)[C@@H](O)[C@@H]2O	Beta-galactosidase (Bos taurus)	500 nM

Please give the measured Ki for this compound: O=C1CC[C@@]2(CO)[C@@H](O)[C@H](O)[C@@H](O)CN12
2400 nM

Repeat with OC[C@]12CCCN1C[C@H](O)[C@@H](O)[C@@H]2O
1500 nM

Repeat with OC[C@@]12CCCN1C[C@H](O)[C@@H](O)[C@@H]2O
1000 nM
